biological target: Thyrotropin receptor (Homo sapiens) (UniProt P16473); assay: qHTS for antagonists of the Thyroid Stimulation Hormone Receptor: Hit Validation in Primary Screen; conditions: TSHR-expressing cells, cAMP antagonist mode; series mostly up to 58 µM; note: nearly all actives have a fitted effect of over 80% in size; note: potency is the fitted concentration of half-maximal effect
Sequence (P16473 whole entry, looked up): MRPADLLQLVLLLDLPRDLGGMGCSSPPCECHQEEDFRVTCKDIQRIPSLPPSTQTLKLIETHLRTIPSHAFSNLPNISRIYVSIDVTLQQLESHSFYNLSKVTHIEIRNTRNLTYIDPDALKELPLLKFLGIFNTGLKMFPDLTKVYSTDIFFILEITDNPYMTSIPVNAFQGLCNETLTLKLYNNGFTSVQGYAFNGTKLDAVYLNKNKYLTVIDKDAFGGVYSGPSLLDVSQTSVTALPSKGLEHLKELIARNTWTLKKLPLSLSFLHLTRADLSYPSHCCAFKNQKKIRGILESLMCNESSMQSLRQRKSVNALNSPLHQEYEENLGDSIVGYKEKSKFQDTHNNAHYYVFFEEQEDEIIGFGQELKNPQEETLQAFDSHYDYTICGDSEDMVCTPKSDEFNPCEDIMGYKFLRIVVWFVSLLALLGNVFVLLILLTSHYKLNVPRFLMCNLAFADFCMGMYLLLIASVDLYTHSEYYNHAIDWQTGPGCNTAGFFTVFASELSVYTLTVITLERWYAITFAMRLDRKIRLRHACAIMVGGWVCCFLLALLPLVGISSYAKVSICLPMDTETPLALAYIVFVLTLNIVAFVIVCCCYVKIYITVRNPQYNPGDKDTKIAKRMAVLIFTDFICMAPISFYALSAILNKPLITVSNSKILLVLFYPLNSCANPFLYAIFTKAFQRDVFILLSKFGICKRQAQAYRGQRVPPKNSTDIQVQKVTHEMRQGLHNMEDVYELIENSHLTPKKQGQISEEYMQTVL
Screen size: about 1,300 compounds; about 380 (29%) were called active. Roughly 37% stayed inconclusive and do not appear here. Some of the results follow.
measure_name: Potency

test_smiles: COC(=O)C1=C(c2ccc(-c3ccccc3)c(F)c2)C[C@@H]2CC[C@H]1N2C(=O)NCCc1ccccc1
system_under_test: Thyrotropin receptor (Homo sapiens) (UniProt P16473)
result: 6.01 µM (active)
//
test_smiles: COc1cc(C(C)=O)ccc1OC(=O)N(C)c1ccccc1
system_under_test: Thyrotropin receptor (Homo sapiens) (UniProt P16473)
result: inactive
//
test_smiles: Oc1ccc(Cl)cc1Cc1cc(Cl)ccc1O
system_under_test: Thyrotropin receptor (Homo sapiens) (UniProt P16473)
result: 30.1 µM (active)
//
test_smiles: CCN(CC)S(=O)(=O)c1ccc(NN=C(C#N)C#N)cc1
system_under_test: Thyrotropin receptor (Homo sapiens) (UniProt P16473)
result: 6.01 µM (active)
//
test_smiles: O=C(Nc1ccc2ccccc2c1)c1nn(C23CC4CC(CC(C4)C2)C3)cc1Br
system_under_test: Thyrotropin receptor (Homo sapiens) (UniProt P16473)
result: inactive
//
test_smiles: COC(=O)C1=C(c2ccc(-c3ccccc3)c(F)c2)C[C@@H]2CC[C@H]1N2C(=O)NCc1ccco1
system_under_test: Thyrotropin receptor (Homo sapiens) (UniProt P16473)
result: 21.3 µM (active)
//
test_smiles: COC(=O)C1=C(c2ccc(-c3ccccc3)c(F)c2)C[C@@H]2CC[C@H]1N2C(=O)NCC1CC1
system_under_test: Thyrotropin receptor (Homo sapiens) (UniProt P16473)
result: 23.9 µM (active)
